Molecular target: COX-1 (Ovis aries, UniProt P05979)
Sequence (P05979 25-600): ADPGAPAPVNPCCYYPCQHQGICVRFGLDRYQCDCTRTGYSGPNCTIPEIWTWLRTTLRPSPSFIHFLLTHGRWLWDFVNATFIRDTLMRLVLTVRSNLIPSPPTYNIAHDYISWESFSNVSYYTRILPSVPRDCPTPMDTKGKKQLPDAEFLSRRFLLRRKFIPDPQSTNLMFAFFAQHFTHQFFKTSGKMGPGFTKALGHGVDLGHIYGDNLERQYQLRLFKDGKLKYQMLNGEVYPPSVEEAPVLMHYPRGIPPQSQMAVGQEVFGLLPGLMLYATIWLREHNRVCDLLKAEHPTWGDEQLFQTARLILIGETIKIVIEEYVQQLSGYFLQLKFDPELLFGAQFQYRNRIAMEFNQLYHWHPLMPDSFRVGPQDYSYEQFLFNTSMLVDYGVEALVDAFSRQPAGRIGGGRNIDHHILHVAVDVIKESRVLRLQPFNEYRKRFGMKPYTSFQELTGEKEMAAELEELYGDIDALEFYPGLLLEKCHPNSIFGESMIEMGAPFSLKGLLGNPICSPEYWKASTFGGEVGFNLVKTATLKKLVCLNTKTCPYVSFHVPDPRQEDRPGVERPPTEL
Measurement name: IC50

Example cases with answers are listed next.
Smiles string: CCCCCC/C=C\CCCCCCCC(=O)O
Study system: COX-1 (Ovis aries, UniProt P05979)
Measurement name: IC50
Value: > 100 µM

Smiles string: CCCCCCCC/C=C\CCCCCCCC(=O)O
Study system: COX-1 (Ovis aries, UniProt P05979)
Measurement name: IC50
Value: > 100 µM

# input Which IC50 is listed for CCCCCCCCCCCCCCCC(=O)O ?
# output > 100 µM
